- System: UACC-62 melanoma
- Protocol summary: NCI-60 one-dose screen, 48 h (100 = growth as untreated, 0 = no growth, -100 = all killed)
- Assay context: 10 µM
This is part of a sample that, as a whole, favours compounds with a hit. Of some 83,000 tested, about 20% had one in any assay.
Measurement label: growth (%)
Write down the numeric answer in % and omit the unit.

Below are worked cases with known answers.
>  <Chemical smiles>
CCCCNC(=O)Oc1ccc(/C(=C(\C)c2ccc(OC)cc2)c2ccc(OCCN3CCCCC3)cc2)cc1

>  <Measurement label>
growth

>  <Recorded measurement>
44

$$$$
>  <Chemical smiles>
COc1cccc2c1O/C(=C\c1ncc([N+](=O)[O-])n1C)C2=O

>  <Measurement label>
growth

>  <Recorded measurement>
-77.7

$$$$
>  <Chemical smiles>
Cc1nc2cc(-n3c(-c4ccc(F)cc4)nc4ccccc4c3=O)ccc2n1Cc1ccccc1

>  <Measurement label>
growth

>  <Recorded measurement>
0.751

$$$$

Request: I would be grateful if you could share the reported growth for CCOC(=O)c1cc(-c2ccccc2)nc(N)n1 .
Response: 99.9

Request: Could you tell me which growth is on file for Cc1cc(C)c2c(Nc3ncnc4c3sc3nc(C)cc(C)c34)n[nH]c2n1 ?
Response: 95.4

Request: Query: growth; subject: COc1ccccc1NC1=C(N2CCCCC2)C(=O)c2ccccc2C1=O
Response: 81.4

Request: // growth lookup, key: C(=C\c1nc2ccccc2s1)/c1ccc(N2CCOCC2)s1
Response: 30.8

Request: Endpoint output: growth of Oc1[nH]c2ccccc2c1/C=c1/cc2c(c(-c3ccc(C(F)(F)F)cc3)n1)=Nc1ccccc1-2 . Value?
Response: 77
